study.system: T1, monomeric human CSF1R ectodomain protein (human, UniProt P07333 20-517)
T1 construct: also called biotinylated monomeric human CSF1R
method.description: AlphaScreen competition with mu0301 IgG4(S228P) for biotinylated monomeric human CSF1R
pIC50: −log10 of the molar value.
assay.readout: pIC50

• murine anti-CSF1R antibody 0301 (mu0301), v-domains in human IgG4(S228P) format (antibody, V domains shown) VH: EVQLQQSGPELVRPGASVKMSCKASGYTFTDNYMIWVKQSHGKSLEWIGDINPYNGGTTFNQKFKGKATLTVEKSSSTAYMQLNSLTSEDSAVYYCARESPYFSNLYVMDYWGQGTSVTVSS VL: NIVLTQSPASLAVSLGQRATISCKASQSVDYDGDNYMNWYQQKPGQPPKLLIYAASNLESGIPARFSGSGSGTDFTLNIHPVEEEDAATYYCHLSNEDLSTFGGGTKLEIK = 8.89
• 29A03 (antibody, human IgG4, V domains shown, Library-derived clone, tested as human IgG4(S228P)/Ckappa IgG; framework residue limits counted on the grafts) VH: QVQLVQSGAEVKKPGSSVKVSCKASGYTFSSNYMIWVRQAPGQGLEWMGDINPYNGGATYNQKFQGRVTITADESTSTAYMELSSLRSEDTAVYYCAREPPYFSNLYVMDYWGQGTLVTVSS VL: EIVLTQSPATLSLSPGERATLSCRASQSVEYEGENYLNWYQQKPGQAPRLLIYAASNRATGIPARFSGSGSGTDFTLTISSLEPEDFAVYYCQLSNQDLLTFGGGTKVEIK = 8.34
• MH6 (antibody, V domains shown, Designer clone, human IgG4(S228P)/Ckappa IgG) VH: QVQLVQSGAEVKKPGSSVKVSCKASGYTFSSYYMIWVRQAPGQGLEWMGDINPYNGGANYAQKFQGRVTITADESTSTAYMELSSLRSEDTAVYYCAREGPYFSNLYVMDYWGQGTLVTVSS VL: EIVLTQSPATLSLSPGERATLSCRASQSVSYEGENYLAWYQQKPGQAPRLLIYAASNRATGIPARFSGSGSGTDFTLTISSLEPEDFAVYYCQLSNQDLLTFGGGTKVEIK = 8.11
• 26B07 (antibody, human IgG4, V domains shown, Library-derived clone, tested as human IgG4(S228P)/Ckappa IgG; framework residue limits counted on the grafts) VH: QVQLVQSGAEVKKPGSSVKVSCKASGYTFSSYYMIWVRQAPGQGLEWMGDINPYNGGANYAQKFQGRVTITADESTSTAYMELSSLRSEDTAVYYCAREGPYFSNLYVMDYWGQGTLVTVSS VL: EIVLTQSPATLSLSPGERATLSCRASQSVEYQGDNYLNWYQQKPGQAPRLLIYAASNRATGIPARFSGSGSGTDFTLTISSLEPEDFAVYYCQLSNEDLLTFGGGTKVEIK = 8.59
• humanized anti-CSF1R antibody 0301 (hu0301) (antibody, human IgG4, V domains shown, also called mAb-1) VH: QVQLVQSGAEVKKPGSSVKVSCKASGYTFTDNYMIWVRQAPGQGLEWMGDINPYNGGTTFNQKFKGRVTITADKSTSTAYMELSSLRSEDTAVYYCARESPYFSNLYVMDYWGQGTLVTVSS VL: EIVLTQSPATLSLSPGERATLSCKASQSVDYDGDNYMNWYQQKPGQAPRLLIYAASNLESGIPARFSGSGSGTDFTLTISSLEPEDFAVYYCHLSNEDLSTFGGGTKVEIK = 8.62

All values here come from patent US20210301026A1.
